molecular target: NAMPT (human, recombinant, C-terminally His-tagged) (Homo sapiens); experiment: Time-Resolved Fluorescence Resonance Energy Transfer (TR-FRET) Binding Assay of NAMPT; settings: 6.8 nM NAMPT, 200 nM probe, equilibrated 3 hours, absence of substrates
Sequence (P43490 whole entry): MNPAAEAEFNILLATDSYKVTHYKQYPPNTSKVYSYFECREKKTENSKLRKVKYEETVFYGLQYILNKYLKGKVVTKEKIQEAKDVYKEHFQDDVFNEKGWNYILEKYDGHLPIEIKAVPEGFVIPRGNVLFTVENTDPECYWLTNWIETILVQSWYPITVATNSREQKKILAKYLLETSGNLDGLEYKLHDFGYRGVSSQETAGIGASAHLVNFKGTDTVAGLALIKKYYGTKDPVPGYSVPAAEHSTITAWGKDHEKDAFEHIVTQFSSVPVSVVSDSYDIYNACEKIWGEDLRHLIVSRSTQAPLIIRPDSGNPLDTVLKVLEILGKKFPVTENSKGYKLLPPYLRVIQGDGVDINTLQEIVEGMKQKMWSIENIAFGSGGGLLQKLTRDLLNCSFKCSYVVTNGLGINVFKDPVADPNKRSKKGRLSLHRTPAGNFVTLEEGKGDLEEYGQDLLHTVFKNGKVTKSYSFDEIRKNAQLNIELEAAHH
Label key: true means IC50 under 70 nM; false means IC50 of 70 nM or more.

CCOCC(=O)N1CCC(c2ccc(NC(=O)C3CN(c4cccnc4C)C3)cc2)CC1: false

Then this compound:
# input Below 70 nM on IC50? Entry "CC(C)(C)C(=O)N1CCC(c2ccc(NC(=O)[C@H]3CCN(c4cccnn4)C3)cc2)CC1"
# output false

====

test system: PC3 cells; assay: NAMPT Cell Proliferation Assay (Cell Titer Glo; also performed in the presence of 0.3 mM nicotinamide mononucleotide); assay type: cell-based; conditions: Homo sapiens, PC-3, 120 h, 5 days incubation, cell viability by Cell Titer Glo
pIC50: −log10 of the molar value.
Doc: threshold 8 (exclusive). Items with pIC50 beneath it return true (1); others return false (0).

Consider the following illustrative entries.
Cc1nnccc1N1CC(C(=O)Nc2ccc(C3CCN(C(=O)c4ccccc4F)CC3)cc2)C1 [Example 909]: true (1)
CN(CCNC(=O)c1ccc(NC(=O)C2CN(c3cccnn3)C2)cc1)c1ccccc1 [Example 982]: true (1)
O=C(N[C@H]1CCN(c2cccnn2)C1)c1ccc(C2CCN(C(=O)CC3CC3)CC2)s1 [Example 1018]: true (1)
CC1(C(=O)N2CCC(Cc3ccc(NC(=O)C4CN(c5cccnn5)C4)cc3)CC2)CC1 [Example 904]: false (0)
O=C(NCC1COC1)c1ccc(NC(=O)C2CN(c3cccnn3)C2)cc1 [Example 990]: true (1)
CCCC(C)C(=O)N1CCC(Cc2ccc(NC(=O)C3CN(c4cccnn4)C3)cc2)CC1 (centres unmarked) [Example 934]: false (0)

# input Would you kindly verify if pIC50 of COC(C)(C)CNC(=O)c1ccc(NC(=O)C2CN(c3cccnn3)C2)cc1 [Example 994] is strictly less than 8?
# output true (1)

# input Record CCOC(=O)c1cc(-c2ccc(NC(=O)C3CN(c4cccnn4)C3)cc2)n(-c2ccccc2)n1 [Example 913] : is its pIC50 strictly below 8?
# output true (1)

# input In plain terms, does CC(C)(C)CC(=O)N1CCC(c2ccc(C(=O)N[C@H]3CCN(c4cccnn4)C3)s2)CC1 [Example 1014] come in under 8 for pIC50?
# output true (1)

# input In the record for O=C(N[C@@H]1CCOC1)c1ccc(NC(=O)C2CN(c3cccnn3)C2)cc1 [Example 1022] , is pIC50 less than 8?
# output true (1)

# input Would you kindly verify if pIC50 of O=C(NCc1ccccc1)c1ccc(NC(=O)C2CN(c3cccnn3)C2)cc1 [Example 1006] is strictly less than 8?
# output false (0)

# input Consider O=C(Nc1ccc(C2CCN(C(=O)c3ccccc3F)CC2)c(F)c1)C1CN(c2cccnn2)C1 [Example 885] . Does its pIC50 lie strictly below 8?
# output false (0)

# input I wonder whether O=C(Nc1cnn(C2CCN(C(=O)c3ccccc3F)CC2)c1)C1CN(c2cccnn2)C1 [Example 971] has pIC50 below 8. Can you tell?
# output true (1)

# input State whether 8 exceeds pIC50 recorded for CC(C)(C)CC(=O)N1CCC(Cc2ccc(NC(=O)C3CN(c4cccnn4)C3)cc2)CC1 [Example 898] .
# output false (0)

# input Report whether reported pIC50 is lower than 8 (strictly) for CC[C@H](C)C(=O)N1CCC(Cc2ccc(NC(=O)C3CN(c4cccnn4)C3)cc2)CC1 [Example 903]
# output false (0)

Provenance of the data: patent US8975398B2
